meta.source: paper PMC12431657

OC43 Inhibition rate values by entry
system: HCoV-OC43; design: species or system RD; HTS, protection from HCoV-OC43 induced cell death, luminescent cell viability (CellCounting-Lite 2.0), inhibition rate; settings: 24 h post infection, 1 h compound pre-incubation; 10 µM; inhibitor
Where a name gives a salt, the structure may show the parent alone. In all, about 3,300 compounds went through this assay and about 60 (2%) showed an effect of 50% or more. The sample holds strong results, similar compounds and a random draw of the others, so the mix is not that of the screen.
Report the value in % with no unit label.

A selection of reference data follows.
compound	unit.name	quantitative.readout
O=C(/C=C/c1ccccc1)OCc1ccccc1 [Benzyl cinnamate]	%	2
C[C@H](CCC(=O)NCCS(=O)(=O)O)[C@H]1CC[C@H]2[C@@H]3C[C@H](O)[C@@H]4C[C@H](O)CC[C@]4(C)[C@H]3CC[C@]12C [Taurohyodeoxycholic acid]	%	-1.1
CCn1cc(C(=O)O)c(=O)c2ccc(C)nc21 [Nalidixic acid]	%	0.1
C=C[C@H]1CN2CC[C@@]3(C(=O)Nc4ccccc43)[C@@H]2C[C@@H]1/C(=C\OC)C(=O)OC [Isocorynoxeine]	%	-0.3
O=c1c(-c2ccc(O)cc2)coc2cc(O)cc(O)c12 [Genistein]	%	6.8

Fill in reported OC43 Inhibition rate for this entry: C[C@@H]1O[C@H]2O[C@H]3[C@@H](OC[C@H](O)[C@@H]3O)OC(=O)[C@]34CCC(C)(C)C[C@H]3C3=CC[C@@H]5[C@@]6(C)C[C@H](O)[C@H](O[C@@H]7O[C@H](CO)[C@@H](O)[C@H](O)[C@H]7O[C@@H]7OC[C@H](OC(=O)C[C@](C)(O)CC(=O)O[C@@H]1[C@@H](O[C@@H]1OC[C@@H](O)[C@H](O)[C@H]1O)[C@H]2O)[C@H](O)[C@H]7O)[C@@](C)(CO)[C@@H]6CC[C@@]5(C)[C@]3(C)C[C@H]4O [Tubeimoside II]
-2.8

Fill in reported OC43 Inhibition rate for this entry: C[C@@H]1O[C@@H](O[C@@H]2C(=O)c3c(O)cc(O)cc3O[C@@H]2c2ccc(O)c(O)c2)[C@H](O)[C@H](O)[C@H]1O [Isoastilbin]
4.2

Fill in reported OC43 Inhibition rate for this entry: COc1ccc2cc3[n+](cc2c1O)CCc1cc2c(cc1-3)OCO2 [Berberrubine (chloride)]
-0.4

Fill in reported OC43 Inhibition rate for this entry: OC1OC[C@@H](O)[C@H](O)[C@@H]1O (stereo partly drawn) [D-Lyxose]
-0.4

Fill in reported OC43 Inhibition rate for this entry: C/C=C(/C)C(=O)O[C@@H]1c2c(ccc3ccc(=O)oc23)OC(C)(C)[C@@H]1OC(=O)/C(C)=C\C [(-)-Anomalin]
32.9

Fill in reported OC43 Inhibition rate for this entry: C/C=C(/C)C(=O)OC(C)(C)[C@@H]1Cc2c(ccc3ccc(=O)oc23)O1 [Columbianadin, columbianadin]
107.6

Fill in reported OC43 Inhibition rate for this entry: Oc1ccc(CC2NCCc3cc(O)c(O)cc32)cc1 (stereo not shown) [Higenamine (hydrochloride)]
0.1

Fill in reported OC43 Inhibition rate for this entry: CC(C)=CCc1c(O)ccc(-c2coc3cc(O)cc(O)c3c2=O)c1O [Licoisoflavone A]
59.7

====

OC43 Inhibition rate values by entry
test system: HCoV-OC43; design: species or system RD; HTS, protection from HCoV-OC43 induced cell death, luminescent cell viability (CellCounting-Lite 2.0), inhibition rate; conditions: 24 h post infection, 1 h compound pre-incubation; 10 µM; inhibitor
About 60 (2%) of roughly 3,300 compounds showed an effect of 50% or more. What follows is part of a selection rich in strong results, with near analogues and random picks from the rest.
Report the value in % with no unit label.

query.smiles	OC43 Inhibition rate [%]
CC(C)=CCc1c(-c2ccc(O)cc2O)oc2c(CC=C(C)C)c(O)cc(O)c2c1=O	51.7
CC(C)=CCc1c(-c2ccc(O)cc2O)oc2c3c(cc(O)c2c1=O)OC(C)(C)C=C3	5.8
COc1ccc(-c2oc3c(CC=C(C)C)c(O)cc(O)c3c(=O)c2O)cc1	0.1

Lab note: next compound to report on.
Fill in reported OC43 Inhibition rate for this entry: CC(C)=CCc1c(O)cc(O)c2c(=O)c(-c3ccc(O)cc3)coc12
63.3

====

OC43 Inhibition rate values by entry
tested on: HCoV-OC43; design: species or system RD; HTS, protection from HCoV-OC43 induced cell death, luminescent cell viability (CellCounting-Lite 2.0), inhibition rate; conditions: 24 h post infection, 1 h compound pre-incubation; 10 µM; inhibitor
About 60 (2%) of roughly 3,300 compounds showed an effect of 50% or more. The full list was thinned out, with strong results kept by preference.
Report the value in % with no unit label.

molecule	unit.name	OC43 Inhibition rate
COc1ccc2cc3n(c(=O)c2c1OC)CCc1cc2c(cc1-3)OCO2	%	58.7
CC1(C)CC[C@]2(C(=O)O[C@@H]3O[C@H](CO)[C@@H](O)[C@H](O)[C@H]3O)CC[C@]3(C)C(=CC[C@@H]4[C@@]5(C)CC[C@H](O[C@@H]6O[C@H](C(=O)O)[C@@H](O[C@@H]7O[C@@H](CO)[C@H](O)[C@H]7O)[C@H](O)[C@H]6O)C(C)(C)[C@@H]5CC[C@]43C)[C@@H]2C1 [Araloside A]	%	1.5
O=C1O[C@H]([C@@H](O)CO)C(O)=C1OP(=O)(O)O [L-Ascorbic acid 2-phosphate (trisodium)]	%	9.8
CC1=CCCC(C)(C)[C@H]1/C=C/C(C)=C/C=C/C(C)=C/C=C/C=C(C)/C=C/C=C(C)/C=C/C1=C(C)CCCC1(C)C	%	19.1
CC(=O)[C@H]1CC[C@H]2[C@@H]3CC=C4C[C@@H](O)CC[C@]4(C)[C@H]3CC[C@]12C	%	1.3

Fill in reported OC43 Inhibition rate for this entry: OCc1cccc2ccccc12
2.9

====

tested on: HCoV-OC43; set-up: species or system RD; HTS, protection from HCoV-OC43 induced cell death, luminescent cell viability (CellCounting-Lite 2.0), inhibition rate; details: 24 h post infection, 1 h compound pre-incubation; 10 µM; inhibitor
Counter-ions that a name gives are not always drawn. Hit rate of the full screen: of about 3,300 compounds, about 60 (2%) showed an effect of 50% or more. The sample holds strong results, similar compounds and a random draw of the others, so the mix is not that of the screen.
OC43 Inhibition rate values by entry

compound	value.kind	result
Nc1ncnc2c1ncn2[C@@H]1O[C@H](CO)C[C@H]1O [Cordycepin]	OC43 Inhibition rate	-0.3%
COc1ccc(-c2oc3c(CC=C(C)C)c(O[C@@H]4O[C@H](CO)[C@@H](O)[C@H](O)[C@H]4O)cc(O)c3c(=O)c2O[C@@H]2O[C@@H](C)[C@H](O)[C@@H](O)[C@H]2O[C@@H]2OC[C@@H](O)[C@H](O)[C@H]2O)cc1 [Epimedin B]	OC43 Inhibition rate	1%
CC1(C)CC[C@]2(C(=O)O[C@@H]3O[C@H](CO)[C@@H](O)[C@H](O)[C@H]3O)CC[C@]3(C)C(=CC[C@@H]4[C@@]5(C)CC[C@H](O[C@@H]6O[C@H](C(=O)O)[C@@H](O)[C@H](O)[C@H]6O[C@H]6OC[C@@H](O)[C@H](O)[C@H]6O)C(C)(C)[C@@H]5CC[C@]43C)[C@@H]2C1 [Pseudoginsenoside RT1]	OC43 Inhibition rate	0.7%

Fill in reported OC43 Inhibition rate for this entry: Cn1cc(C(=O)O)ccc1=O
0.2%

Fill in reported OC43 Inhibition rate for this entry: CC(=O)O[C@H]1C[C@@]2(C)[C@@H](C[C@@H](O)[C@H]3[C@@]4(C)CC[C@@H](O)[C@@H](C)[C@@H]4CC[C@@]32C)/C1=C(\CCC=C(C)C)C(=O)O [Fusidic acid (sodium salt)]
1.2%

Fill in reported OC43 Inhibition rate for this entry: C[C@H]1[C@H](C)CC[C@]2(C)CC[C@]3(C)C(=CC[C@@H]4[C@@]5(C)CC[C@@H](O)[C@](C)(C(=O)O)[C@@H]5CC[C@]43C)[C@H]12 [β-Boswellic acid]
-0.2%

Fill in reported OC43 Inhibition rate for this entry: COc1cc(O)ccc1/C=C/C(=O)c1ccc(O)cc1 [Echinatin]
46.1%

Fill in reported OC43 Inhibition rate for this entry: C[C@@H]1[C@H](O)[C@@H](C)/C=C/C=C/C=C/C=C/C=C/C=C/C=C/[C@H](O[C@@H]2O[C@H](C)[C@@H](O)[C@H](N)[C@@H]2O)C[C@@H]2O[C@](O)(C[C@@H](O)C[C@@H](O)[C@H](O)CC[C@@H](O)C[C@@H](O)CC(=O)O[C@H]1C)C[C@H](O)[C@H]2C(=O)O [amphotericin B]
103.7%

Fill in reported OC43 Inhibition rate for this entry: CCCCCCC/C=C\C(=O)O [(Z)-2-Decenoic acid]
29.5%

Fill in reported OC43 Inhibition rate for this entry: COc1c(/C=C/C(=O)c2ccc(O)cc2)ccc(O)c1O [Licochalcone B]
45.6%

Fill in reported OC43 Inhibition rate for this entry: CC1(C)CC[C@]2(C(=O)O)CC[C@]3(C)C(=CC[C@@H]4[C@@]5(C)CC[C@@H](O)C(C)(C)[C@@H]5CC[C@]43C)[C@@H]2C1 [3-Epioleanolic acid]
-0.6%
